# System: Saccharomyces cerevisiae;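 note: PSI is a weighted mean of sequencing reads over stability bins, variants kept only with over 10 reads, mCherry proximal and sfGFP distal, peptide attached via GGGS linker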
# assay_remarks: protein stability index of tFT-peptide fusion (C-terminal peptide) (PSI (0-1 scale)); higher = more stable (slower turnover)
# condition_context: genetic background: wild type; temperature: 30 C
Label 1 for high-side protein stability index (at or above 0.7) and -1 for low-side protein stability index (below it).

Recorded results for 2 sequences are shown here.
YYFCMYFKVTLC	-1
GLIICRRCLWCC	-1

Quick check: does QIDYSVYIFALG have protein stability index greater than or equal to 0.7?
-1

Quick check: does LPACPHPPPLPD have protein stability index greater than or equal to 0.7?
-1

Quick check: does WGAGRGGAFFSG have protein stability index greater than or equal to 0.7?
-1

Quick check: does YQEIIKRQTGNK have protein stability index greater than or equal to 0.7?
1
